Provenance of the data: patent US20260184675A1

The entries below are paired with their reported Number of hatched larvae 5 days after insecticide delivery, Replicate 3.
tested on: eggs of Panonychus citri; experiment: Effect on hatching of eggs of Panonychus citri, leaf disc method; type: in vivo; conditions: Panonychus citri eggs, 1 ppm, leaf disc, replicate 3
No unit in the answer, please; the number alone is enough.

CC(COS(=O)OCCF)Oc1ccc(Cl)cc1Cl (stereo not shown) [Compound 1] = 0
CC(C)(COc1ccc(Cl)cc1Cl)OS(=O)OCCF (stereo not shown) [Compound 10] = 0
CC(C)(COc1ccc(Cl)cc1Cl)OS(=O)OCCF (stereo not shown) [Compound S-10] = 0
CC(C)(COS(=O)OCCF)Oc1ccc(Cl)cc1Cl (stereo not shown) [Compound 10′] = 1

query: // returns reported Number of hatched larvae 5 days after insecticide delivery, Replicate 3 for input CC(C)(COc1ccc(Cl)cc1Cl)OS(=O)OCCF (stereo not shown) [Compound R-10]
result: 14

query: Also, CC(C)(COS(=O)OCCF)Oc1ccc(Cl)cc1Cl (stereo not shown) [R-10′] please.
result: 10

query: Also, CCC(COS(=O)OCCF)Oc1ccc(Cl)cc1Cl (stereo not shown) [Compound 19′] please.
result: 0

query: Also, CC[C@H](COc1ccc(Cl)cc1Cl)OS(=O)OCCF (stereo partly drawn) [19-(R,S)] please.
result: 0

query: Also, CCC(COc1ccc(Cl)cc1Cl)OS(=O)OCCF (stereo not shown) [Compound 19] please.
result: 0

query: Also, CCC(COS(=O)OCCF)Oc1ccc(Cl)cc1Cl [19′-(R,R)] please.
result: 0
